procedure details: Selectivity ratio of IC50 for MDCK cells to IC50 for human MOLT4 cells
Type: ADME, cell-based, MOLT-4
condition: dog (MDCK), MDCK cells versus MOLT4 cells, read-out: Ratio IC50
Measured selectivity ratio by item
// no unit string in output, number only

CCSC1CC2=C(OC1(C)C)c1ccccc1C(=O)C2=O (centres undefined) ... 2.1
CC1(C)OC2=C(CC1Sc1cccc(Cl)c1)C(=O)C(=O)c1ccccc12 (centres undefined) ... 0.9
CC1(C)OC2=C(CC1[Se]c1ccc(Br)cc1)C(=O)C(=O)c1ccccc12 (centres undefined) ... 0.9

Pending compound:
Name the recorded selectivity ratio of the item CC1(C)OC2=C(CC1[Se]c1cccc(C(F)(F)F)c1)C(=O)C(=O)c1ccccc12 (centres undefined) in your answer. 4.1
